Source listed as ChEMBL document CHEMBL1201862.

Measured AC50 (Cytochrome P450 2C9 (Homo sapiens))
Reported Property: AC50

[[record]]
molecule = "CSc1nc(C)c(CCOC(=O)c2ccccc2)c(O)n1"
reported_property = "AC50"
result = "20 µM (inconclusive)"

[[record]]
molecule = "Cc1cc(C(F)(F)F)n2nc(-c3cnn(C)c3C(F)(F)F)c(Cl)c2n1"
reported_property = "AC50"
result = "20 µM (inconclusive)"

[[record]]
molecule = "CC1CCCC(NC(=O)C2CCN(S(=O)(=O)N3CCC4(CC3)OCCO4)CC2)C1C (stereo not drawn)"
reported_property = "AC50"
result = "39.8 µM (inconclusive)"


###

target: UniProtKB P33261; assay: Cytochrome panel assay with activity outcomes. Panel member name: p450-cyp2c19 Compounds with AC50 equal or less than 10 uM are considered active; format: functional; settings: read-out: AC50
Sequence (P33261 whole entry): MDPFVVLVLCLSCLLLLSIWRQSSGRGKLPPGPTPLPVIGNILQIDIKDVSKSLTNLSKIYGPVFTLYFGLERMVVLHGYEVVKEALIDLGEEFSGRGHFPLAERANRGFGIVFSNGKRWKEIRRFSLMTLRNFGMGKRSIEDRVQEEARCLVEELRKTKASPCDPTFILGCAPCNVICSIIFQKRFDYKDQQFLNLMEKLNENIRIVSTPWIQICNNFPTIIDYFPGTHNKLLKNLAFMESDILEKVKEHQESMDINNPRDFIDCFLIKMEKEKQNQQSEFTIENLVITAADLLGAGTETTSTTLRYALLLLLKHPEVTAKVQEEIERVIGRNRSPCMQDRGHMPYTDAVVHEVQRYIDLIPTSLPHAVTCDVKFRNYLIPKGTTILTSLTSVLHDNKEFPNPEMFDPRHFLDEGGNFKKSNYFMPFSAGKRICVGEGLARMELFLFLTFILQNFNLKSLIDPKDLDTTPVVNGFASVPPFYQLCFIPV
Each entry below carries its reported AC50.
Reported Property: AC50

[[record]]
molecule = "CCOC(=O)N1CCN(S(=O)(=O)c2ccc(C(=O)Nc3ccc(F)cc3F)cc2)CC1"
reported_property = "AC50"
result = "25.1 µM (inconclusive)"

[[record]]
molecule = "COc1ccc(/C=N/NC(=O)CCc2ccccc2)cc1O"
reported_property = "AC50"
result = "15.8 µM (inconclusive)"

[[record]]
molecule = "O=[N+]([O-])c1cccc(/C=N\\Nc2ccc3ccccc3n2)c1O"
reported_property = "AC50"
result = "6.31 µM (inconclusive)"

[[record]]
molecule = "CCOC(=O)N1CCC(NC(=O)CS(=O)(=O)Cc2nc(-c3cccc(OC)c3)oc2C)CC1"
reported_property = "AC50"
result = "39.8 µM (inconclusive)"

[[record]]
molecule = "CC1CCCC(NC(=O)C2CCN(S(=O)(=O)N3CCC4(CC3)OCCO4)CC2)C1C (stereo unspecified)"
reported_property = "AC50"
result = "6.31 µM (inconclusive)"

[[record]]
molecule = "FC(F)(F)c1cc(C(F)(F)F)c2ccc(N/N=C/c3cccc(Cl)c3)nc2n1"
reported_property = "AC50"
result = "17.8 µM (inconclusive)"

